src = patent US20150344444A1

Tested on: MOLM-13 cells
PROTOCOL TEXT: MOLM-13 cell proliferation assay (alamarBlue)
Type: cell-based
MEASUREMENT CONTEXT: inhibition of cell proliferation, 96 hours, human AML cell line
METRIC NAME: IC50 (µM)

Guide cases for IC50, answers given:
Query: Enter IC50 (test system MOLM-13 cells) for C[C@@H]1C(=O)N(C)c2ccc(Nc3ccc(S(=O)(=O)N(C)C)cc3)cc2N1C1CCOCC1
Result: 0.719

Query: Report IC50 from MOLM-13 cells testing of C[C@@H]1C(=O)N(C)c2ccc(Nc3ccc(S(=O)(=O)N4CCOCC4)cc3)cc2N1C1CCOCC1
Result: 0.407

Query: Provide MOLM-13 cells IC50 reading for C[C@@H]1C(=O)N(C)c2ccc(Nc3ccc(S(=O)(=O)N4CCOCC4)cc3)cc2N1Cc1ccccc1 .
Result: 0.223

Query: Would you please give the reported IC50 of C[C@@H]1C(=O)N(C)c2ccc(Nc3ccc(C(=O)N4CC5(COC5)C4)cc3)cc2N1C1CCOCC1 with MOLM-13 cells?
Result: 2.27

1. C[C@@H]1C(=O)N(C)c2ccc(Nc3ccc(C(=O)NC4CC4)cc3)cc2N1C1CCOCC1
2. COc1ccc(CN2c3cc(Nc4ccc(C(=O)N5CCN(C(C)C)CC5)cc4)ccc3N(C)C(=O)[C@H]2C)cc1
Query: # compare IC50 for 1 vs 2 ; return the one with the smaller value Let me know the label of the one you choose.
Result: 2

###

STUDY TARGET: BRD4 Bromo Domain 1 [BRD4(1)] (Homo sapiens, UniProt O60885)
Construct: N-terminally His6-tagged BRD4(1) (amino acids 67-152)
PROTOCOL TEXT: BRD4(1)/acetylated peptide H4 binding assay (TR-FRET)
MEASUREMENT CONTEXT: inhibition of interaction between His6-tagged BRD4(1) (amino acids 67-152) and acetylated histone H4 peptide
METRIC NAME: IC50 (nM)

a. C[C@@H]1C(=O)N(C)c2ccc(Nc3ccc(C(=O)N4CCOCC4)cc3)cc2N1C1CCCCCC1
b. C[C@@H]1C(=O)N(C)c2ccc(Nc3ccc(S(=O)(=O)N(C)C)cc3)cc2N1C1CCCCCC1
Query: Hi there, can you help? I need to know whether a or b has lower measured IC50. Please respond with the label that marks your chosen entry.
Result: a
(a: 143 nM, b: 264 nM)

###

STUDY TARGET: BRD4 Bromo Domain 2 [BRD4(2)] (Homo sapiens)
Construct: N-terminally His6-tagged BRD4(2) (amino acids 357-445)
PROTOCOL TEXT: BRD4(2)/acetylated peptide H4 binding assay (TR-FRET)
MEASUREMENT CONTEXT: inhibition of interaction between His6-tagged BRD4(2) (amino acids 357-445) and acetylated histone H4 peptide
METRIC NAME: IC50 (nM)

1. COc1cc(C(=O)NC2CCN(C)CC2)ccc1Nc1ccc2c(c1)N(C1CCOCC1)[C@H](C)C(=O)N2C [Example 36]
2. C[C@@H]1C(=O)N(C)c2ccc(Nc3ccc(C(=O)NC4CCN(C)CC4)cc3)cc2N1C1CCCCCC1 [Example 23]
3. C[C@@H]1C(=O)N(C)c2ccc(Nc3ccc(S(=O)(=O)N4CCN(C)CC4)cc3)cc2N1Cc1ccccc1 [Example 15]
4. C[C@@H]1C(=O)N(C)c2ccc(Nc3ccc(C(=O)N4CC5(CCS5(=O)=O)C4)cc3)cc2N1Cc1ccccc1 [Example 16]
Query: Returns the items ordered by IC50, from maximum to minimum. # answer = labels listed in requested order
Result: 1, 2, 4, 3
(1: 441 nM, 2: 152 nM, 4: 97 nM, 3: 51 nM)

I. C[C@@H]1C(=O)N(C)c2ccc(Nc3ccc(C(=O)NC4CCN(C)CC4)cc3)cc2N1C1CCOCC1 [Example 26]
II. C[C@@H]1C(=O)N(C)c2ccc(Nc3ccc(S(=O)(=O)N(C)C)cc3)cc2N1C1CCOCC1 [Example 46]
Query: Compare the recorded IC50 of I and II ; state which is larger. Refer to your chosen item by its label in the answer.
Result: I
(I: 391 nM, II: 148 nM)

###

Tested on: MOLM-13 cells
PROTOCOL TEXT: MOLM-13 cell proliferation assay (alamarBlue)
Format: cell-based
MEASUREMENT CONTEXT: inhibition of cell proliferation, 96 hours, human AML cell line
METRIC NAME: IC50 (nM)

As a guide, the following entries are already answered.
Query: Quickly give me recorded IC50 for COc1ccc(CN2c3cc(Nc4ccc(C(=O)NCC5COC5)cc4)ccc3N(C)C(=O)[C@H]2C)cc1
Result: 335

Query: Dear colleague, please send me the reported IC50 for COc1cc(C(=O)NC2CCN(C)CC2)ccc1Nc1ccc2c(c1)N(C1CCOCC1)[C@H](C)C(=O)N2C when you can.
Result: 1080

Query: Supply reported IC50 belonging to this compound: C[C@@H]1C(=O)N(C)c2ccc(Nc3ccc(C(=O)N4CCOCC4)cc3)cc2N1C1CCCCCC1
Result: 967

P. COc1ccc(CN2c3cc(Nc4ccc(S(=O)(=O)N5CCOCC5)cc4)ccc3N(C)C(=O)[C@H]2C)cc1
Q. COc1ccc(CN2c3cc(Nc4ccc(S(=O)(=O)N5CCN(C(C)C)CC5)cc4)ccc3N(C)C(=O)[C@H]2C)cc1
R. C[C@@H]1C(=O)N(C)c2ccc(Nc3ccc(S(=O)(=O)N(C)C)cc3)cc2N1Cc1ccccc1
S. C[C@@H]1C(=O)N(C)c2ccc(Nc3ccc(C(=O)NC4CCN(C)CC4)cc3)cc2N1Cc1c(F)cccc1F (stereo in doubt)
Query: Form: Sort by [IC50] Order [ ascending ] Answer by listing the labels in the requested order.
Result: P, R, Q, S

###

STUDY TARGET: BRD4 Bromo Domain 2 [BRD4(2)] (Homo sapiens, UniProt O60885)
Construct: N-terminally His6-tagged BRD4(2) (amino acids 357-445)
PROTOCOL TEXT: BRD4(2)/acetylated peptide H4 binding assay (TR-FRET)
MEASUREMENT CONTEXT: inhibition of interaction between His6-tagged BRD4(2) (amino acids 357-445) and acetylated histone H4 peptide
Source text: Protein-Protein Interaction Assay: BRD4/Acetylated Peptide H4 Binding Assay 2. Assay Description for BRD4 Bromo Domain 2 [BRD4(2)] To assess the BRD4(2) binding strength of the substances described in this application, the ability thereof to inhibit the interaction between BRD4(2) and acetylated histone H4 in a dose-dependent manner was quantified. […]
pIC50: −log10 of the molar value.
METRIC NAME: pIC50

Query: Provide pIC50, system BRD4 Bromo Domain 2 [BRD4(2)] (Homo sapiens, UniProt O60885), entry CC(C)N1CCN(C(=O)c2ccc(Nc3ccc4c(c3)N(C3CCOCC3)[C@H](C)C(=O)N4C)cc2)CC1
Result: 6.42

A. C[C@@H]1C(=O)N(C)c2ccc(Nc3ccc(C(=O)NCC4COC4)cc3)cc2N1C1CCOCC1
B. C[C@@H]1C(=O)N(C)c2ccc(Nc3ccc(C(=O)N4CCOCC4)cc3)cc2N1C1CCCCCC1
Query: # returns the entry with the larger pIC50; inputs A and B Label of pick, please.
Result: B
(B: 6.99, A: 6.29)

###

STUDY TARGET: BRD4 Bromo Domain 1 [BRD4(1)] (Homo sapiens, UniProt O60885)
Construct: N-terminally His6-tagged BRD4(1) (amino acids 67-152)
PROTOCOL TEXT: BRD4(1)/acetylated peptide H4 binding assay (TR-FRET)
MEASUREMENT CONTEXT: inhibition of interaction between His6-tagged BRD4(1) (amino acids 67-152) and acetylated histone H4 peptide
METRIC NAME: IC50 (nM)

These solved cases illustrate the format of a correct answer.
Query: Provide IC50 value for the following molecule: CC(=O)N1CCC(NC(=O)c2ccc(Nc3ccc4c(c3)N(C3CCOCC3)[C@H](C)C(=O)N4C)cc2)CC1
Result: 371

Query: Quick one: give measured IC50 for COc1ccc(CN2c3cc(Nc4ccc(C(=O)NC5CCN(C)CC5)cc4)ccc3N(C)C(=O)[C@H]2C)cc1
Result: 114

a. C[C@@H]1C(=O)N(C)c2ccc(Nc3ccc(C(=O)N(C)C)cc3)cc2N1C1CCCC1
b. C[C@@H]1C(=O)N(C)c2ccc(Nc3ccc(C(=O)N4CCOCC4)cc3)cc2N1Cc1ccccc1
c. C[C@@H]1C(=O)N(C)c2ccc(Nc3ccc(C(=O)NC4CCN(C)CC4)cc3)cc2N1Cc1ccccc1
Query: Hey, quick one: sort these by IC50, largest value first please. Response field: labels, in requested order.
Result: c, b, a

1. C[C@@H]1C(=O)N(C)c2ccc(Nc3ccc(S(=O)(=O)N4CCOCC4)cc3)cc2N1Cc1ccccc1
2. C[C@@H]1C(=O)N(C)c2ccc(Nc3ccc(C(=O)N4CCOCC4)cc3)cc2N1C1CCCC1
Query: Identify the item whose IC50 is the smaller number: 1 or 2 Kindly state the label of the option you pick.
Result: 2
